Exercise: for every item that follows, state its recorded pIC50.
target: HLA-DR DRB1*0701 (DR7) (Homo sapiens, UniProt P01903+P01911, A100R/A102G/A103Q/D57E/D86V/E43K/F76Y/K127E/L162R/M171V/P40G/Q125H/Q99D/R33Q/R42Y/R54Q/S133A/S66F/T210M/V115G/Y107V/Y59L/Y89S); assay: biochemical; assay type: binding; settings: DRB1 *0701
No end group written: not given here.
FYI, pIC50 means -log10 of a concentration in mol per litre.

Q) Item under review: RPIVNMDYVVGARTFRREKR . Reported pIC50?
A) 6.46

Q) Thanks! And YGAVVNLRKTVVNFP ?
A) 5.08

Q) Next sequence: DIRILQELLMGSFGI
A) 5.80

Q) Another sequence to check: CKFVVQLDIQSTKED [CKFVVQLDIQSTKED]
A) 5.34

Q) Next up: GIVEQTTTSITSLYQ
A) 6.10

Q) For DLFVVYRDSIPHAAC then?
A) 5.28

Q) And what about the sequence HQAISPRTLNGPGPGSPAIF ?
A) 5.29

Q) Next sequence: HFNMLKNKMQSSFFM
A) 5.49

Q) What do we get for VILLGRHSLFHPEDT ?
A) 4.51

* * *

biological target: HLA-DR DRB1*1101 (DR11) (Homo sapiens, UniProt P01903+P01911, A100R/A169T/A87E/I96F/K41T/L162R/M171V/P40S/Q125H/Q178H/Q39Y/Q99D/R42S/S66Y/T262R/V115G/W38E); test: biochemical; assay type: binding; conditions: DRB1 *1101
Sequence (P01903 26-254 limits assumed, other chains not shown): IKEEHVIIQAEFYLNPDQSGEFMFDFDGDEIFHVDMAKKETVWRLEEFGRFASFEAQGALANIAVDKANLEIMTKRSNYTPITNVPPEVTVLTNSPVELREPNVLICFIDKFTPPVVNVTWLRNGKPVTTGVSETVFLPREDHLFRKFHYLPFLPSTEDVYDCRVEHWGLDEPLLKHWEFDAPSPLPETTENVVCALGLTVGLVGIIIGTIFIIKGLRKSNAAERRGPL
No end group written: not given here.
property-name: IC50 (µM)
// note: answer is a bare numeric in µM

Q) What does the data say about its IC50? Entry: NSRLLQERGVAYINA
A) 12.8

Q) Another: GEALSTLVLNRLKVG
A) 0.079

Q) Also LYFVKVDVTGAYDTI , if possible.
A) 0.221

Q) Param item: SNLELLRISLLLIQS
A) 23.7

Q) Same lookup for ELVSEFSRMARDPQ , please.
A) 4.57

Q) Please give the result for TSLTFSESIPTPSNR too.
A) 22.2

Q) Note, next up: ALSTLVLNRLKVGLQ
A) 0.0091

Q) Now try LFFYRKSVWSKLQSI .
A) 0.012

Q) Again, but for ALWRVSAEEY
A) 0.243

Q) Do the same for WAGLLLDTRTLEVQS please
A) 21

Q) Same again, this time with GMLPVCPLIPGSSTTSTGP
A) 2.5

Q) What do we get for SAAPLRTITADTFRK [SAAPLRT1TADTFRK] ?
A) 3.88

Q) Repeat with TTVLGKLSQELHKLQ
A) 3.52

Q) Also LHLLSNDMCARAYSE ?
A) 26

Q) VTGERGFFYTPKTRR , same question.
A) 10.1

Q) Item: LRMMNDQLMFLERAF
A) 1.83

Q) What about this sequence? PVIKNSIKLRL
A) 2.77

Q) Let us now turn to TTLLRALGAQKEAIS
A) 0.86

Q) Repeat for the following sequence: EVFFQRLGIASGRAR
A) 0.031

Q) Now consider RMSSLHLKRYYGRIL .
A) 1.03

Q) Another sequence to check: LWQLNGRLEYTLKDR
A) 6.52

Q) Entry AATYNFAVLKLMGRGTKF please
A) 0.017

Q) Param item: PEEFLRPRSLQCVSL
A) 10.7
